Molecular target: T1, human vasopressin V1b receptor (hV1bR) (human, UniProt P47901 1-424)
T1 construct: vasopressin V1b receptor, human; in membrane preparations; source: HEK293, stably expressing; membrane preparations
T1 sequence (looked up): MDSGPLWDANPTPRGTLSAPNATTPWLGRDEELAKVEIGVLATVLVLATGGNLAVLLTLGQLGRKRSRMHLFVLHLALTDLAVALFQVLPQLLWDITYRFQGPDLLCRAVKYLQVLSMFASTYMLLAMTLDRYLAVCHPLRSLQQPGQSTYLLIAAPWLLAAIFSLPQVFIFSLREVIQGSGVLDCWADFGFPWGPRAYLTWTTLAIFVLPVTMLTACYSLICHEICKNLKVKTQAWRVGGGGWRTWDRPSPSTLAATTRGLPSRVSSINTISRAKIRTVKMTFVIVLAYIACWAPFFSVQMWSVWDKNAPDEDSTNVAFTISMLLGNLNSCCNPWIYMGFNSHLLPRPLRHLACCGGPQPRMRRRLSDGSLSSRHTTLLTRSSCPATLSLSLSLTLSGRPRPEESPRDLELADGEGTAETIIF
Experiment: radioligand binding; displacement of [3H]-OT or [3H]-VP from membrane preparations of HEK293 cells stably expressing the human receptor; dose-response curves in duplicates, at least three independent experiments; Ki >10 µM assigned where <25% of the radioligand was displaced at 10 µM
Conditions: one partner purified
Positions of bridges follow the written chain, without caps; N, C: chain ends. Non-standard residues stand in square brackets, D forms with d. Groups on a side chain read outwards from the residue. Primed or numbered codes have the meaning given here. No end group written: not given here. εdLys = D-Lys linked through its epsilon amine (k^ε); PEG5′ = PEG5 spacer, as named in the construct; Cy5s = Cy5s fluorophore, as named; Orn = NCCC[C@H](N)C(=O)O; Mpa = O=C(O)CCS
Hi! Could you tag entries with Ki below 200 nM as criterion met, and those at or above as criterion not met? Much appreciated.

IN: Problem: For the binder [Mpa]YIQNCP[Orn](Cy5s)G (disulfide 1-6) [d(Orn)^8OT‐[Cy5s]^8] , is Ki under 200 nM?
OUT: criterion met

IN: Problem: For the binder [Mpa]YIQNCP[Orn]G (disulfide 1-6; not fully specified (residue 8)) [d(Orn)^8OT‐[d‐PEG5‐k^ε‐AF488]^8] , is Ki under 200 nM?
OUT: criterion not met

IN: Problem: For the binder [Mpa]YIQNCP[Orn]([PEG5′-εdLys-Cy5s])G (disulfide 1-6) [d(Orn)^8OT‐[PEG5‐k^ε‐Cy5s]^8] , is Ki under 200 nM?
OUT: criterion met

IN: Problem: For the binder [Mpa]YIQNCP[Orn]([dD-PEG5′-Cy5s])G (disulfide 1-6) [d(Orn)^8OT‐[d‐PEG5‐Cy5s]^8] , is Ki under 200 nM?
OUT: criterion not met

IN: Problem: For the binder [Mpa]YIQNCP[Orn]G (disulfide 1-6) [d(Orn)^8OT] , is Ki under 200 nM?
OUT: criterion met

Source listed as paper PMC12603982.
